Biological target: T1, human CD81 mutant V169A (human, UniProt P60033 1-236, limits assumed)
T1 construct: as m30; not shown: C-terminal V5 and 6xHis tags
T1 sequence: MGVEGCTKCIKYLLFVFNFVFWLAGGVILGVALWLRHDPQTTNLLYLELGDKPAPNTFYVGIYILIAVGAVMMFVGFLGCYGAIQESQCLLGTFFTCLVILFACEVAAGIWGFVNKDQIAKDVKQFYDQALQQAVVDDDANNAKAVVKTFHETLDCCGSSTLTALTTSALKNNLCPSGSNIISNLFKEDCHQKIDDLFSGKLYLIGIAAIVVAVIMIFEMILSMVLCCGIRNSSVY
Assay: ELISA
Measurement Kind: relative binding affinity

>  <Binder>
002-B05 (antibody, human IgG4 S228P, lambda, V domains shown, IgG4 S228P) VH: EVQLLESGGGLVQPGGSLRLSCAASGFTFSSNYMSWVRQAPGKGLEWVSYISSSSTYTDYADSVKGRFTISRDNSKNTLYLQMNSLRAEDTAVYYCARYSYSRDNFDYWGQGTLVTVSS VL: QSVLTQPPSASGTPGQRVTISCTGSTSNIGAGYGTHWYQRLPGTAPKLLIYGNSNRPSGVPDRFSGSKSGTSASLAISGLRSEDEADYYCQSYDTNLSVWVFGGGTKLTVLG

>  <relative binding affinity>
< 20%

$$$$

Next binder, relative binding affinity to be filled in.
# binder 002-F01 (antibody, human IgG4 S228P, lambda, V domains shown, IgG4 S228P) VH: EVQLLESGGGLVQPGGSLRLSCAASGFTFSSNYMSWVRQAPGKGLEWVSYISSSSTYTDYADSVKGRFTISRDNSKNTLYLQMNSLRAEDTAVYYCARYSYGRDNFDYWGQGTLVTVSS VL: QSVLTQPPSASGTPGQRVTISCTGSTSNIGAGYDTHWYQQLPGTAPKLLIYGNSNRPSGVPDRFSGSKSGTSASLAISGLRSEDEADYYCQSYDTNLSAWVFGGGTKLTVLG ; its relative binding affinity = < 20%
